Each item that follows carries a reported EC50 at 1 h.
Experiment: Cytotoxicity, colorimetric tetrazolium assay
Format: cell-based
Details: human, HepG2 cells (HB-8065), one hour with compound in serum-free media
// unit must come after the numeric part

molecule="N=C(N)NCCCCC(=O)Nc1cc(C(F)(F)F)cc(NC(=O)Nc2ccc(Oc3cc(NCCN)cc(C(F)(F)F)c3)cc2)c1SCCN [Compound 106]" endpoint_value="61.8 µg/mL"

Returns the measured EC50 at 1 h for the input molecule. Input: N=C(N)NCCCCC(=O)Nc1cc(C(F)(F)F)cc(NC(=O)Nc2ccc(Oc3cc(N)cc(C(F)(F)F)c3)cc2)c1SCCN [Compound 102]
68 µg/mL

Returns the measured EC50 at 1 h for the input molecule. Input: NCCCc1cc(NC(=O)Nc2cc(C(F)(F)F)c(SCCN)cc2SCCN)ccc1Oc1ccc(NCCN)c(C(F)(F)F)c1 [Compound 113]
191 µg/mL
